studyTarget: CXCR4 (Mus musculus)
Sequence (P70658 whole entry): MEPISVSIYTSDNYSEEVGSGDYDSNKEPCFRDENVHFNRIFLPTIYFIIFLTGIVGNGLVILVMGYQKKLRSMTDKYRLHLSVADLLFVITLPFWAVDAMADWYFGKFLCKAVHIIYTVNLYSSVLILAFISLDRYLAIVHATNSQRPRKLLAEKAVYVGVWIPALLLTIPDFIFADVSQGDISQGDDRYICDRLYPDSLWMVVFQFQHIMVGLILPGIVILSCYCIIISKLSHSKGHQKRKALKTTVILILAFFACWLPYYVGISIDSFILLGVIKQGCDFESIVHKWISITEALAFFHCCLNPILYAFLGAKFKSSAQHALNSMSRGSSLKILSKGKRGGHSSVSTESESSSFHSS
pIC50: −log10 of the molar value.
recordedMetric: pIC50

| compound | experimentalValue |
| --- | --- |
| CC(=O)[O-].CC(=O)[O-].[64Cu+2].c1cc(CN2CCCNCCNCCCNCC2)ccc1CN1CCCNCCNCCCNCC1 [^64Cu-4] | 4.33 |

Attribution: paper PMC2723765
